Test protocol: Inhibition of recombinant Schistosoma manson carbonic anhydrase pre-incubated with enzyme for 15 mins by phenol red dye based stopped flow CO2 hydration assay
Parameters: species or system Schistosoma mansoni
The following compounds are shown together with reported Ki values.
Lab book: enter the figure in nM, no units written.

The following compounds have reported results that may help.
NS(=O)(=O)c1cccc(NC(=[Se])Nc2ccc(F)cc2)c1
91.4
NS(=O)(=O)c1ccc(NC(=[Se])Nc2ccc(F)cc2)cc1
76.8
NS(=O)(=O)c1ccc(CCNC(=[Se])Nc2cccc(C(F)(F)F)c2)cc1
4.5
CC(=O)Nc1nnc(S(N)(=O)=O)s1 [ACETAZOLAMIDE]
42.5
NS(=O)(=O)c1ccc(NC(=[Se])Nc2cccc(C(F)(F)F)c2)cc1
1.5
COc1ccccc1NC(=[Se])NCCc1ccc(S(N)(=O)=O)cc1
6.1
NS(=O)(=O)c1ccc(NC(=S)Nc2ccc(F)cc2)cc1
23.3
NS(=O)(=O)c1ccc(CCNC(=[Se])Nc2ccc(I)cc2)cc1
4.7

Problem: Name the recorded Ki for "NS(=O)(=O)c1ccc(NC(=[Se])Nc2ccccc2Cl)cc1" .
Solution: 6.8

Problem: Please look up its Ki: "NS(=O)(=O)c1ccc(CCNC(=[Se])Nc2ccccc2F)cc1"
Solution: 7.9

Problem: # get_value(readout='Ki', item= "NS(=O)(=O)c1cccc(NC(=[Se])Nc2ccccc2)c1" )
Solution: 426

Problem: Consider the compound shown here: "NS(=O)(=O)c1ccc(CCNC(=S)Nc2ccc(I)cc2)cc1" What is its recorded Ki?
Solution: 37.6

Problem: Return reported Ki; argument: "NS(=O)(=O)c1ccc(NC(=O)Nc2ccc(F)cc2)cc1"
Solution: 54.3

Problem: // query Ki value for entry "NS(=O)(=O)c1ccc(CCNC(=[Se])Nc2ccc(Br)cc2)cc1"
Solution: 1.7

Problem: Which Ki is reported for this compound? "NS(=O)(=O)c1ccc(CCNC(=O)Nc2ccc(I)cc2)cc1"
Solution: 13.3

###

Test protocol: Selectivity ratio of Ki for inhibition of recombinant human carbonic anhydrase 2 to Ki for inhibition of recombinant Schistosoma manson carbonic anhydrase
Format: toxicity
Property: Ratio Ki
Give a plain numeric answer without units written out.

The cases that follow already have their Ratio Ki on record.
NS(=O)(=O)c1cccc(NC(=[Se])Nc2ccc(F)cc2)c1
4.2
NS(=O)(=O)c1ccc(CCNC(=[Se])Nc2ccc(I)cc2)cc1
12.2
NS(=O)(=O)c1ccc(NC(=[Se])Nc2ccccc2)cc1
0.6

Problem: State the recorded Ratio Ki for this entry: "NS(=O)(=O)c1ccc(NC(=O)Nc2ccc(F)cc2)cc1"
Solution: 1.7

Problem: # Ratio Ki lookup, item "NS(=O)(=O)c1ccc(CCNC(=[Se])Nc2ccc(Br)cc2)cc1"
Solution: 1.05

Problem: For "NS(=O)(=O)c1ccc(NC(=[Se])Nc2ccccc2F)cc1" , what is its reported Ratio Ki?
Solution: 1.1

Problem: Suppose we examine the compound "NS(=O)(=O)c1ccc(CCNC(=S)Nc2ccc(I)cc2)cc1" ; what Ratio Ki value has been reported?
Solution: 0.2

Problem: Fill in: Ratio Ki of "COc1ccccc1NC(=[Se])NCCc1ccc(S(N)(=O)=O)cc1" is ___
Solution: 0.7

Problem: I have this compound here, "NS(=O)(=O)c1ccc(NC(=S)Nc2ccc(F)cc2)cc1" , and I need its recorded Ratio Ki.
Solution: 0.6

Problem: I have this compound here, "NS(=O)(=O)c1ccc(CCNC(=O)Nc2ccc(I)cc2)cc1" , and I need its recorded Ratio Ki.
Solution: 0.6

Problem: Endpoint output: Ratio Ki of "NS(=O)(=O)c1ccc(CCNC(=[Se])Nc2cccc(C(F)(F)F)c2)cc1" . Value?
Solution: 0.97

Problem: // query Ratio Ki value for entry "NS(=O)(=O)c1ccc(CCNC(=[Se])Nc2ccccc2)cc1"
Solution: 1.7
